# Tgt: T1, 14‐3‐3η (human, UniProt Q04917 1-246)
# T1 construct: 14-3-3 eta, human, full-length protein from the pProEx HTb-His-14-3-3 construct; Captured on an NTA chip in SPR; source: E. coli BL21(DE3), purified (Ni2+-NTA, dialysis)
# T1 sequence (looked up): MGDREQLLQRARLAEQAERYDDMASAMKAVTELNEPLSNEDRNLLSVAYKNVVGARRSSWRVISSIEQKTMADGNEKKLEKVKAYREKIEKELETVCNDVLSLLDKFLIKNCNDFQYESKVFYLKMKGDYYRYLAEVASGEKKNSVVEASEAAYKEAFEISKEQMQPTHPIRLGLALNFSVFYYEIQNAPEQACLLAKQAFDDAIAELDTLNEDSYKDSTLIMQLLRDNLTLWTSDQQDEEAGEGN
# Test Protocol: fluorescence polarisation; fluorescence anisotropy, direct titration: 14-3-3 protein titrated (1/2 dilution series) against 50 nM FAM-Ahx tracer peptide; 10 mM HEPES, 150 mM NaCl, 0.1% Tween 20, 0.1% BSA, pH 7.4; 384 well plates, triplicates; protein concentration as 14-3-3 monomer; 1:1 fit, biphasic curves fitted as two separate 1:1 events (Kd1, Kd2)
# Assay Conditions: both partners purified
[ ]: non-standard residue; d: D form. pS = N[C@@H](COP(=O)(O)O)C(=O)O; FAM = 5,6-carboxyfluorescein; Ahx = NCCCCCC(=O)O
Measured pKd, listed per entry.
Scale: pKd equals -log10([C]), with [C] in mol/L.

Reference set (3 entries):
>  <Binder>
{FAM-Ahx}-SKLTHSL[pS]TSDITAI-NH2 (hDMX (human double minute 4 protein, hDM4), human, residues 335-349; Tracer form used in the FA assays; source: synthetic peptide (Fmoc SPPS, HPLC purified)) [FAM‐Ahx‐hDMX_(335‐349) ^pSer342]

>  <Test Readout>
pKd

>  <Numeric Readout>
4.70

$$$$
>  <Binder>
{FAM-Ahx}-SRRRAI[pS]ETEEN-NH2 (hDM2 (human double minute 2 protein), human, residues 160-171; Tracer form used in the FA assays; also called hDM2_(160‐171) ^Ser166; source: synthetic peptide (Fmoc SPPS, HPLC purified)) [FAM‐Ahx‐hDM2_(160‐171) ^pSer166]

>  <Test Readout>
pKd

>  <Numeric Readout>
4.99

$$$$
>  <Binder>
{FAM-Ahx}-QRKRHK[pS]DSISLS-NH2 (hDM2 (human double minute 2 protein), human, residues 180-192; Tracer form used in the FA assays; source: synthetic peptide (Fmoc SPPS, HPLC purified)) [FAM‐Ahx‐hDM2_(180‐192) ^pSer186]

>  <Test Readout>
pKd

>  <Numeric Readout>
4.50

$$$$

Request: Request the reported pKd associated with {FAM-Ahx}-DCRRTI[pS]APVVRPK-NH2 (Tracer form used in the FA assays; source: synthetic peptide (Fmoc SPPS, HPLC purified)) [FAM‐Ahx‐hDMX_(361‐374) ^pSer367]
Result: 7.00

Values were extracted from paper PMC9541495.
